Cited source for all entries: PubChem BioAssay (NCI)

Test system: M19-MEL melanoma
EXPERIMENT_NOTES: NCI tumour cell line growth inhibition, 48 h
ASSAY_ENDPOINT: TGI

Known results for compounds:
Q) State the recorded TGI for this entry: CC1CC2C3CC(F)C4=CC(=O)C=CC4(C)C3(F)C(O)CC2(C)C1(O)C(=O)COC(=O)C(C)(C)C (stereo not drawn)
A) > 100 µM

Q) State the recorded TGI for this entry: `S=c1sc2c(Cl)ncnc2n1-c1ccccc1`
A) 13.1 µM

Q) State the recorded TGI for this entry: `COc1cc(CCc2cccnc2)cc(OC)c1OC`
A) > 100 µM

Q) State the recorded TGI for this entry: `CC1=NN(C(=O)c2ccccc2O)C(=O)/C1=C/c1ccc([N+](=O)[O-])cc1`
A) > 100 µM

Q) State the recorded TGI for this entry: `FC(F)(F)C1(Cl)C(c2ccccc2)=C1c1ccccc1`
A) 27.7 µM

Here are 6 compounds. What values of TGI were reported for them?
1. Cn1cnc([N+](=O)[O-])c1Sc1nc2cc(Cl)c(F)cc2[nH]1
2. COc1ccc(/C=C2\CN(C)Cc3c2nc(N)nc3-c2ccc(OC)cc2)cc1
3. CCOc1ccc2nc(NC(=O)C(=O)C(C(=O)c3ccccc3-c3ccccc3)C3OC(=O)c4ccccc43)sc2c1 (stereo not drawn)
4. CCOc1ccccc1NC(=O)CCC(=O)OC
5. O=C(O)CCCl
6. O=C(NCCCCCCCCNC(=O)c1cnc2ccccc2n1)c1cnc2ccccc2n1

A)
1. 23.9 µM
2. > 100 µM
3. 44.2 µM
4. > 100 µM
5. > 5000 µM
6. > 100 µM

Here are 2 compounds. What values of TGI were reported for them?
1. Cc1c2cc(Cl)ccc2n2c(=O)c3ccccc3[nH]c(=O)c12
2. O=C(O)CN(c1ccccc1)S(=O)(=O)c1ccc(NC(=O)c2ccccc2)cc1

A)
> 100 µM
> 100 µM

---

Tested on: HT29 colon
EXPERIMENT_NOTES: NCI tumour cell line growth inhibition, 48 h; in the data active = GI50 below about 0.43 µM; inactive = the rest
The reply should name one outcome from true = active, false = inactive

Here's what some known entries look like.
Q) Recorded test call requested for `COc1ccc2c(c1)C(=O)c1c-2n(CCCN)c(=O)c2ccccc12`
A) true

Q) Recorded test call requested for `Cc1c2cnccc2c(C)c2c1c1cc(C3OCCCO3)ccc1n2C`
A) true

Q) Recorded test call requested for `COc1ccc(C#Cc2ccccc2C#CCCCCO)cc1`
A) false

Q) Recorded test call requested for `O=[N+]([O-])c1ccc(Nc2ccccc2-c2ccccc2)c2nonc12`
A) false

Q) Recorded test call requested for `C=C(CNC(=O)Nc1ccc(-c2ccccc2)cc1)c1ccc(C(=O)Nc2ccccc2N)cc1`
A) false

***
Q) Recorded test call requested for `COC(=O)[C@@H](NC(=O)NC(=O)NC(=O)CI)C(C)C`
A) false

Q) Recorded test call requested for `COC1=CC(c2ccc[nH]2)=N/C1=C\c1[nH]c(C)c(C(=O)OCc2ccccc2)c1C`
A) true

Q) Recorded test call requested for `CC(=O)C1=C(O)C=C2Oc3c(C(=O)/C=C/c4cc(C(F)(F)F)cc(C(F)(F)F)c4)c(O)c(C)c(O)c3[C@]2(C)C1=O`
A) false

Q) Recorded test call requested for `C=C1C(=O)O[C@H]2[C@H]1CC/C(CNC(=O)/C=C/c1ccc(Br)cc1)=C\CC[C@@]1(C)O[C@@H]21`
A) false

Q) Recorded test call requested for `C=C(Cn1c(=O)c2ccccc2c2ccccc21)c1ccc(C(=O)Nc2ccccc2N)cc1`
A) false

---

Provide the reported TGI of each item.
System: NCI-H23 lung
EXPERIMENT_NOTES: NCI tumour cell line growth inhibition, 48 h
Answers are plain numbers, in µM.

Q) State the recorded TGI for this entry: COc1ccc(/C(=N/NC(N)=O)C2(O)C(=O)Nc3ccc([N+](=O)[O-])cc32)cc1 (stereo not given)
A) 31.6

Consider the record given below.
Q) State the recorded TGI for this entry: `CCC[CH2][Sn]([CH2]CCC)([O]C(=O)c1c(F)cccc1F)[O]C(=O)c1c(F)cccc1F`
A) 1.6

---

Tested on: COLO 205 colon
EXPERIMENT_NOTES: NCI tumour cell line growth inhibition, 48 h
ASSAY_ENDPOINT: TGI

Known results for compounds:
Q) State the recorded TGI for this entry: COc1ccc(S(=O)(=O)NC(C)C(=O)O)cc1 (stereo unspecified)
A) > 100 µM

Q) State the recorded TGI for this entry: `CCOC(=O)CCCn1nnc(C(=O)OCC)c1C(=O)OCC`
A) > 100 µM

Q) State the recorded TGI for this entry: `C[n+]1c(/C=C\C=C\N2CCCCC2)sc2ccccc21`
A) 0.454 µM

Q) State the recorded TGI for this entry: OCC1OC(c2scc3c(=S)nc[nH]c23)C(O)C1O (stereo unspecified)
A) 33.5 µM

Here are 2 compounds. What values of TGI were reported for them?
1. O=c1[nH]c(=O)n(C2CC(O)C(CO)O2)cc1I (stereo unspecified)
2. O=S(=O)(Nc1ncccn1)c1ccc(N=Nc2ccc(O)c3ncccc23)cc1

A)
["> 100 µM", "> 100 µM"]

---

Test system: KM12 colon
EXPERIMENT_NOTES: NCI tumour cell line growth inhibition, 48 h
ASSAY_ENDPOINT: TGI

Q) Test system KM12 colon; read-out TGI; what value for `O=C(O)c1ccccc1.[Ag]` ?
A) 47.3 µM

Q) Test system KM12 colon; read-out TGI; what value for `COc1c2cc([N+](=O)[O-])cc1CNC(=O)CN1CCOCCOCCN(CCOCCOCC1)CC(=O)NC2` ?
A) > 100 µM

Q) Test system KM12 colon; read-out TGI; what value for CC12CC3C(CC1SCC(=O)O2)C3(C)C (stereo not drawn) ?
A) > 100 µM

Here are 8 compounds. What values of TGI were reported for them?
1. CCOC(=O)c1cn(-c2ccccc2)c(=S)n2c1nc1ccccc12
2. COc1c2c(c3c(c1C1OC(C)[C@@H](C)O1)CC(C)(C)O3)C(=O)c1ccccc1C2=O (stereo partly drawn)
3. O=c1cc(CNC2CCCC2)[nH]c(=O)[nH]1
4. CCOC(=O)c1ccc(N=NN(C)C(=O)C(C)N)cc1 (stereo not drawn)
5. CCOC(=O)c1cccc(NC(=O)CCl)c1
6. Cc1nc2c(=S)[nH]ncc2[nH]1
7. Nc1nc(CCC(=O)Nc2cccc(C(F)(F)F)c2)cc(-c2cccc3ccccc23)n1
8. C=C(C)[C@@H]1CC[C@]2(C(=O)O)CC[C@]3(C)[C@H](CC[C@@H]4[C@@]5(C)CC(=O)C(C)(C)[C@@H]5CC[C@]43C)[C@@H]12

A)
1. > 100 µM
2. > 100 µM
3. > 100 µM
4. > 100 µM
5. 21.4 µM
6. > 100 µM
7. > 100 µM
8. > 25 µM

Here are 2 compounds. What values of TGI were reported for them?
1. CC(C)=CCN=C(N)N
2. O=C(c1ccccc1)c1ccc2c(c1)nc1n2C(c2c(Cl)cccc2Cl)SC1 (stereo not drawn)

A)
> 100 µM
> 100 µM

---

Provide the reported TGI of each item.
System: UO-31 renal
EXPERIMENT_NOTES: NCI tumour cell line growth inhibition, 48 h

Known results for compounds:
Q) State the recorded TGI for this entry: `NNC(=S)N/N=C(\CCCC(=O)NCCc1ccccc1)CC(=O)c1ccccc1`
A) > 100 µM

Q) State the recorded TGI for this entry: `COc1cc(-c2nn3c(/C=C4/C(=O)Nc5ccccc54)c(-c4ccc(C)cc4)nc3s2)cc(OC)c1OC`
A) > 100 µM

Q) State the recorded TGI for this entry: CC(=O)NC1C(OCc2ccccc2)OC(CO)C(O)C1OCC(=O)NC(C)C(=O)NC(CCC(=O)NCCCCNc1ccc([N+](=O)[O-])c2[nH]c3ccccc3c(=O)c12)C(N)=O (stereo not given)
A) > 100 µM

Q) State the recorded TGI for this entry: COc1cccc2c1C(=O)c1c(O)c3c(c(O)c1C2=O)CC(O)(C(C)=O)CC3OC1CC(N)C(O)C(C)O1 (stereo not given)
A) 5.46 µg/mL

Q) State the recorded TGI for this entry: `c1ccc(C2=NC3(CCCCC3)N(c3nc4ccccc4s3)N2)nc1`
A) > 100 µM

Q) State the recorded TGI for this entry: `O=C1OC(=O)c2c1c(-c1ccccc1)cn2-c1ccc(Cl)cc1`
A) > 100 µM

Here are 8 compounds. What values of TGI were reported for them?
1. CN(C)c1nc2sc3c(c2c(=O)o1)CCCC3
2. S=c1sc2c(Cl)ncnc2n1-c1ccccc1
3. CC(C)(C)OC(=O)NCCNC1=CC(=O)c2nc3ccccc3c3ccnc1c23
4. FC(F)(F)C1(Cl)C(c2ccccc2)=C1c1ccccc1
5. Cc1ccc(S(=O)(=O)N/N=C/c2oc(-c3cccc([N+](=O)[O-])c3)c(-c3cccc([N+](=O)[O-])c3)c2[N+](=O)[O-])cc1
6. O=C(COc1ccc(OCC(=O)N2C(=O)CC(=O)N(c3ccccc3)C2=S)cc1)N1C(=O)CC(=O)N(c2ccccc2)C1=S
7. Cc1c2cc[nH]c(C(F)(F)F)c2cc2c1nc1ccccc12
8. OCCOc1ccc(-c2cc(-c3ccccn3)nc(-c3ccccn3)c2)cc1

A)
> 100 µM
32.7 µM
> 100 µM
31.9 µM
32.3 µM
> 100 µM
> 125 µM
1 µM

Here are 4 compounds. What values of TGI were reported for them?
1. C1=C(c2ccccc2)CN(c2ccccc2)OC1
2. COc1cc(/C=C2/SC(c3ccccc3)N(c3ccc(NC(C)=O)cc3)C2=O)cc(OC)c1OC (stereo not given)
3. O=c1cc(CNC2CCCC2)[nH]c(=O)[nH]1
4. C(=Nc1ccccc1)C1CCCC[N-]1.C(=Nc1ccccc1)C1CCCC[N-]1.[Cu+2].[O-][Cl+3]([O-])([O-])O (stereo not given)

A)
["> 100 µM", "> 100 µM", "> 100 µM", "> 94.3 µM"]

Here are 2 compounds. What values of TGI were reported for them?
1. O=C1C=CC2CCC1C2 (stereo not given)
2. CC1=NN(C(=O)c2ccccc2O)C(=O)/C1=C/c1ccc([N+](=O)[O-])cc1

A)
> 100 µM
1.88 µM
